- TESTED_TARGET: T1, Mouse PD-1 extracellular domain, hFc tag (mouse, UniProt Q02242 25-169)
- T1 construct: extracellular domain; also called mPro1.ECD.hFc; not shown: human Fc tag at C-terminus
- T1 sequence (looked up): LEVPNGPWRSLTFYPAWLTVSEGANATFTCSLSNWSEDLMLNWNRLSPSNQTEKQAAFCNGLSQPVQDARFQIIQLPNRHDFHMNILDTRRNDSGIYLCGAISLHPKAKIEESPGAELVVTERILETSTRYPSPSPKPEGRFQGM
- MEASUREMENT_NOTES: SPR Biacore 8K; PD-1-hFc captured on anti-human Fc chip, VHH injected; 1:1 fit
- Protocol: To screen WBP3056 VHH antibodies from affinity maturation, koff to hPro1.ECD.hFc, mPro1.ECD.hFc and cynoPro1.ECD.hFc (AcrobioSystems) was detected by SPR assay using Biacore 8K. hPro1.ECD.hFc, mPro1.ECD.hFc or cynoPro1.ECD.hFc (AcrobioSystems) was captured on an anti-human IgG Fc antibody immobilized CM5 sensor chip. Each VHH antibody was injected over the sensor chip at a flow rate of 30 uL/min for an association phase of 120 s, followed by 150 s dissociation. […]
Listed binders paired with reported pKd
Scale: negative log10 of molar concentration, which is what pKd denotes.

Here's what some known entries look like.
[[record]]
binder = "AP17R1-2H2-Z1-R1-14F3 (VHH, not shown: his- and c-Myc-tag from vector pETbac) VHH: QVQLVESGGGVVQPGGSLRLSCAASDSIDSLVNMGWYRQAPGKQRELVALIAWYITHYADFVKGRFTISRDNSKNTLYLQMNSLRAEDTAVYYCYARNIIVDYWGQGTLVTVSS"
readout_label = "pKd"
number = 7.57

[[record]]
binder = "AP17R1-2H2-Z1-R1-14B3 (VHH, not shown: his- and c-Myc-tag from vector pETbac) VHH: QVQLVESGGGVVQPGGSLRLSCAASDSIDSLVNMGWYRQAPGKQRELVALIARYITHYADFVKGRFTISRDNSKNTLYLQMNSLRAEDTAVYYCYARNIIVDYWGQGTLVTVSS"
readout_label = "pKd"
number = 7.76

[[record]]
binder = "AP17R1-2H2-Z1 (VHH, also called the humanized AP17R1-2H2; not shown: his- and c-Myc-tag from vector pETbac) VHH: QVQLVESGGGVVQPGGSLRLSCAASDSIDSLVNMGWYRQAPGKQRELVALIANYITHYADFVKGRFTISRDNSKNTLYLQMNSLRAEDTAVYYCYARNIIVDYWGQGTLVTVSS"
readout_label = "pKd"
number = 7.18


# context switch: different binder, same pKd
Field pKd (entry AP17R1-2H2-Z1-R1-27A2 (VHH, not shown: his- and c-Myc-tag from vector pETbac) VHH: QVQLVESGGGVVQPGGSLRLSCAASDSIDSLVNMGWYRQAPGKQRELVALIANYITHYADFVKGRFTISRDNSKNTLYLQMNSLRAEDTAVYYCYARSIIVDYWGQGTLVTVSS ) reads 7.47

Reference source: patent US20240301067A1
